method.description: Inhibition of SYK (unknown origin) transfected in mouse Ba/F3 cells assessed as reduction in cell viability incubated for 48 hrs by brightglo-luciferase reporter gene assay
Attribute: IC50
readout.kind: IC50 (µM)

>  <sample.smiles>
COC(=O)Nc1ccc(-c2c(OC3CCN(C)CC3)nc3c(-c4ccc(OC)c(OC)c4)cnn3c2N)cc1

>  <readout.kind>
IC50

>  <measure.unit>
µM

>  <inequality.symbol>
=

>  <assay.value>
1.4

$$$$
>  <sample.smiles>
COc1ccc(-c2cnn3c(N)c(-c4nccs4)c(OC4CCN(C)CC4)nc23)cc1OC

>  <readout.kind>
IC50

>  <measure.unit>
µM

>  <inequality.symbol>
>

>  <assay.value>
11

$$$$
>  <sample.smiles>
COc1ccc(-c2cnn3c(N)c(-c4ccccc4)c(OC4CCN(C)CC4)nc23)cc1OC

>  <readout.kind>
IC50

>  <measure.unit>
µM

>  <inequality.symbol>
=

>  <assay.value>
7.6

$$$$

----------
method.description: Inhibition of LYN (unknown origin) transfected in mouse Ba/F3 cells assessed as reduction in cell viability incubated for 48 hrs by brightglo-luciferase reporter gene assay
readout.kind: IC50 (nM)

>  <sample.smiles>
COc1ccc(-c2cnn3c(N)c(-c4nccs4)c(OC4CCN(C)CC4)nc23)cc1OC

>  <readout.kind>
IC50

>  <assay.value>
1500

$$$$
>  <sample.smiles>
COC(=O)Nc1ccc(-c2c(OC3CCN(C)CC3)nc3c(-c4ccc(OC)c(OC)c4)cnn3c2N)cc1

>  <readout.kind>
IC50

>  <assay.value>
67

$$$$
>  <sample.smiles>
COc1ccc(-c2cnn3c(N)c(-c4ccccc4)c(OC4CCN(C)CC4)nc23)cc1OC

>  <readout.kind>
IC50

>  <assay.value>
410

$$$$

----------
Attribute: pIC50
method.description: Inhibition of LCK (unknown origin) transfected in mouse Ba/F3 cells assessed as reduction in cell viability incubated for 48 hrs by brightglo-luciferase reporter gene assay
pIC50: −log10 of the molar value.

>  <sample.smiles>
COC(=O)Nc1ccc(-c2c(OC3CCN(C)CC3)nc3c(-c4ccc(OC)c(OC)c4)cnn3c2N)cc1

>  <pIC50>
5.62

$$$$
>  <sample.smiles>
COc1ccc(-c2cnn3c(N)c(-c4ccccc4)c(OC4CCN(C)CC4)nc23)cc1OC

>  <pIC50>
6.96

$$$$
>  <sample.smiles>
COc1ccc(-c2cnn3c(N)c(-c4nccs4)c(OC4CCN(C)CC4)nc23)cc1OC

>  <pIC50>
5.92

$$$$

----------
method.description: Inhibition of KIF5B-RET (unknown origin) transfected in mouse Ba/F3 cells assessed as reduction in cell viability incubated for 48 hrs by brightglo-luciferase reporter gene assay
pIC50: −log10 of the molar value.
Attribute: pIC50

>  <sample.smiles>
COC(=O)Nc1ccc(-c2c(OC3CCN(C)CC3)nc3c(-c4ccc(OC)c(OC)c4)cnn3c2N)cc1

>  <pIC50>
8.22

$$$$
>  <sample.smiles>
COc1ccc(-c2cnn3c(N)c(-c4ccccc4)c(NCCCN(C)C)nc23)cc1OC

>  <pIC50>
7.25

$$$$
>  <sample.smiles>
COc1ccc(-c2cnn3c(N)c(-c4nccs4)c(OC4CCN(C)CC4)nc23)cc1OC

>  <pIC50>
6.92

$$$$
>  <sample.smiles>
COc1ccc(-c2cnn3c(N)c(-c4ccccc4)c(OC4CCN(C)CC4)nc23)cc1OC

>  <pIC50>
7.43

$$$$
>  <sample.smiles>
CN1C(C)(C)CC(Nc2nc3c(-c4ccc(C(=O)N5C[C@@H]6C[C@H]5CO6)cc4)cnn3c(N)c2-c2ccccc2)CC1(C)C

>  <pIC50>
8.27

$$$$
>  <sample.smiles>
COc1ccc(-c2cnn3c(N)c(-c4ccccc4)c(OC4CCNCC4)nc23)cc1OC

>  <pIC50>
7.10

$$$$
>  <sample.smiles>
CN1C(C)(C)CC(Nc2nc3c(-c4ccc(C(=O)N5CCN(S(C)(=O)=O)CC5)cc4)cnn3c(N)c2-c2ccccc2)CC1(C)C

>  <pIC50>
8.20

$$$$
>  <sample.smiles>
COc1ccc(-c2cnn3c(N)c(-c4ccccc4)c(NC4CC(C)(C)N(C)C(C)(C)C4)nc23)cc1OC

>  <pIC50>
8.77

$$$$
>  <sample.smiles>
COC(=O)N1CCN(C(=O)c2ccc(-c3cnn4c(N)c(-c5ccccc5)c(NC5CC(C)(C)N(C)C(C)(C)C5)nc34)cc2)CC1

>  <pIC50>
8.48

$$$$
>  <sample.smiles>
COc1ccc(-c2cnn3c(N)c(-c4ccccc4)c(NC4CCN(C)CC4)nc23)cc1OC

>  <pIC50>
7.51

$$$$
>  <sample.smiles>
COc1ccc(-c2cnn3c(N)c(-c4ccccc4)c(OCCCN(C)C)nc23)cc1OC

>  <pIC50>
7.15

$$$$
